Sourced from PubChem BioAssay AID2060510

# System: 439559-082-T-J2-PDC spheroids viability
# EXPERIMENT_NOTES: Anticancer human tumor 439559-082-T-J2-PDC patient-derived colon adenocarcinoma cell line growth inhibition [GQUAD]
# MEASUREMENT_SETUP: second compound 0.316 µM; first compound 0.000999 µM; active compounds read low
TEST_READOUT: viability, T/C (%)
The figure you give is taken to be in %; do not add the unit.

CCc1c2c(nc3ccc(O)cc13)-c1cc3c(c(=O)n1C2)COC(=O)[C@]3(O)CC + Cc1cnc(CNC(=O)c2c(=O)c3ccc(N4CCCN(C)CC4)nc3n3c2sc2ccccc23)cn1; 77.3

Exercise: For the compound Cn1ncnc1[C@H]1c2n[nH]c(=O)c3cc(F)cc(c23)N[C@@H]1c1ccc(F)cc1 + Cc1[nH]c2ccc(F)cc2c1-c1nc2c3cccnc3c3ncccc3c2[nH]1 , give its measured viability, T/C value.
Key: 113

Exercise: Please report the measured viability, T/C for CCc1c2c(nc3ccc(O)cc13)-c1cc3c(c(=O)n1C2)COC(=O)[C@]3(O)CC + CN(C)c1ccc(Nc2c3ccc(NC(=O)CCN4CCCC4)cc3nc3cc(NC(=O)CCN4CCCC4)ccc23)cc1
Key: 104

Exercise: Identify measured viability, T/C corresponding to Cc1[nH]c2ccccc2c1CCNCc1ccc(/C=C/C(=O)NO)cc1 + Cc1[nH]c2ccc(F)cc2c1-c1nc2c3cccnc3c3ncccc3c2[nH]1
Key: 115

Exercise: Check the records and state viability, T/C for Cn1ncnc1[C@H]1c2n[nH]c(=O)c3cc(F)cc(c23)N[C@@H]1c1ccc(F)cc1 + Cc1cnc(CNC(=O)c2c(=O)c3ccc(N4CCCN(C)CC4)nc3n3c2sc2ccccc23)cn1
Key: 93.8

Exercise: Supply viability, T/C value. Item: CC[C@@]1(O)C(=O)OCc2c1cc1n(c2=O)Cc2cc3c(CN(C)C)c(O)ccc3nc2-1 + Cc1[nH]c2ccc(F)cc2c1-c1nc2c3cccnc3c3ncccc3c2[nH]1
Key: 98.1

Exercise: Look up and state reported viability, T/C for Cc1[nH]c2ccccc2c1CCNCc1ccc(/C=C/C(=O)NO)cc1 + CN(C)c1ccc(Nc2c3ccc(NC(=O)CCN4CCCC4)cc3nc3cc(NC(=O)CCN4CCCC4)ccc23)cc1
Key: 93.6

====

# Test system: 439559-082-T-J2-PDC spheroids viability
# EXPERIMENT_NOTES: Anticancer human tumor 439559-082-T-J2-PDC cell line growth inhibition [GQUAD];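 also: spheroids exposed to the agents for 7 days before readout; percent of luminescence signal in DMSO vehicle wells taken as 100% viability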
# MEASUREMENT_SETUP: second compound 0.0316 µM; first compound 3.16 µM; active compounds read low
Below, each entry is listed alongside its reported viability, T/C.
Numbers only; they are read as %.

Worked examples follow.
COc1cccc2c1C(=O)c1c(O)c3c(c(O)c1C2=O)CC(O)(C(=O)CO)CC3OC1CC(N)C(O)C(C)O1 (stereo not drawn) + Cc1cnc(CNC(=O)c2c(=O)c3ccc(N4CCCN(C)CC4)nc3n3c2sc2ccccc23)cn1; 48.9
CC(C)n1c(=O)n(C)c2cnc3cc(F)c(-c4ccc(OCCCN5CCCCC5)nc4)cc3c21 + CN(C)c1ccc(Nc2c3ccc(NC(=O)CCN4CCCC4)cc3nc3cc(NC(=O)CCN4CCCC4)ccc23)cc1; 122

// next entry
Exercise: Please list viability, T/C recorded for the compound CCCS(=O)(=O)Nc1ccc(F)c(C(=O)c2c[nH]c3ncc(-c4ccc(Cl)cc4)cc23)c1F + Cc1[nH]c2ccc(F)cc2c1-c1nc2c3cccnc3c3ncccc3c2[nH]1
Key: 46.5
